System: MT4
assay_summary: Toxicity was determined by evaluation of cluster morphology and reclustering properties in mock infected MT-4 cells at 125 uM concentration
Type: cell-based
particulars: human, mt4, 125 µM
measure: Toxicity

1. Cc1cn([C@H]2C=C[C@@H](CO)O2)c(=O)[nH]c1=O: > 90%
2. CCc1cn(C2CCC(CO)O2)c(=O)[nH]c1=O (stereo unspecified): < 10%
3. CCO[C@H]1C[C@H](n2cc(C)c(=O)[nH]c2=O)O[C@@H]1CO: > 90%
4. Cc1cn(C2CC(Br)C(CO)O2)c(=O)[nH]c1=O (stereo unspecified): > 90%
5. Nc1ccn(C2CC(F)C(CO)O2)c(=O)n1 (stereo unspecified): > 90%
6. Cc1cn([C@H]2C[C@H](I)[C@@H](CO)O2)c(=O)[nH]c1=O: > 90%

###

System: MT4
assay_summary: Protection was determined by evaluation of cluster morphology and reclustering properties in […] MT-4 cells at 5 uM concentration; Range is 10-40
Assay type: functional, Homo sapiens
Catalogue of Protection readings, one per entry.
measure: Protection

1. CO[C@H]1C[C@H](n2cc(C)c(=O)[nH]c2=O)O[C@@H]1CO: 10%
2. CCc1cn([C@H]2C[C@H](N=[N+]=[N-])[C@@H](CO)O2)c(=O)[nH]c1=O: 10%
3. CCO[C@H]1C[C@H](n2cc(C)c(=O)[nH]c2=O)O[C@@H]1CO: 10%
4. Cc1cn(C2CC(Br)C(CO)O2)c(=O)[nH]c1=O (centres undefined): 10%
5. Cc1cn(C2CC(Cl)C(CO)O2)c(=O)[nH]c1=O (centres undefined): 10%
6. Cc1cn([C@H]2C[C@H](OS(C)(=O)=O)[C@@H](CO)O2)c(=O)[nH]c1=O: 10%
7. CNc1nc(=O)n(C2CC(N=[N+]=[N-])C(CO)O2)cc1C (centres undefined): 10%
8. CCSC1CC(n2cc(C)c(=O)[nH]c2=O)OC1CO (centres undefined): 10%
9. Cc1cn([C@H]2C[C@H](SC#N)[C@@H](CO)O2)c(=O)[nH]c1=O: 10%

###

Test system: MT4
assay_summary: Toxicity was determined by evaluation of cluster morphology and reclustering properties in mock infected MT-4 cells at 125 uM concentration; Range is 10-40
Format: cell-based
particulars: human, mt4, 125 µM
measure: Toxicity (%)

1. Cc1cn(C2CC(SCCO)C(CO)O2)c(=O)[nH]c1=O (stereo not given): 10
2. Nc1ncnc2c1ncn2[C@H]1C[C@H](O)[C@@H](CO)O1: 10
3. Cc1cn([C@H]2C[C@H](N=[N+]=[N-])[C@@H](CO)O2)c(=O)nc1N: 10
4. NCC1C=CC(n2ccc(N)nc2=O)O1 (stereo not given): 10
5. Cc1cn([C@H]2C[C@@H](OS(C)(=O)=O)[C@@H](CO)O2)c(=O)[nH]c1=O: 10

###

System: MT4
assay_summary: Protection was determined by evaluation of cluster morphology and reclustering properties in mock infected MT-4 cells at 125 uM concentration
Format: functional, Homo sapiens
particulars: in the assay text read “HIV infected” for “mock infected”
Catalogue of Protection readings, one per entry.
measure: Protection

1) Nc1ncnc2c1ncn2[C@H]1C=C[C@@H](CO)O1: <10%
2) Nc1ncnc2c1ncn2[C@H]1C[C@H](O)[C@@H](CO)O1: <10%
3) Cc1cn([C@H]2C[C@H](OCC(=O)[O-])[C@@H](CO)O2)c(=O)[nH]c1=O.[Na+]: <10%
4) O=c1ccn(C2CCC(CO)O2)c(=O)[nH]1 (stereo unspecified): >90%
5) Cc1cn([C@H]2C[C@H](N=[N+]=[N-])[C@@H](CO)O2)c(=O)nc1N: >90%
6) CNc1nc(=O)n(C2CC(N=[N+]=[N-])C(CO)O2)cc1C (stereo unspecified): >90%
7) Cc1cn([C@H]2C[C@H](N=[N+]=[N-])[C@@H](CO)O2)c(=O)[nH]c1=O (stereo in doubt; 9k): <10%
8) CCc1cn(C2CCC(CO)O2)c(=O)[nH]c1=O (stereo unspecified): <10%
9) Cc1cn([C@H]2C[C@H](OS(C)(=O)=O)[C@@H](CO)O2)c(=O)[nH]c1=O: >90%
10) Cc1cn([C@H]2C[C@@H](OS(C)(=O)=O)[C@@H](CO)O2)c(=O)[nH]c1=O: >90%
11) Nc1ncnc2c1ncn2[C@H]1CC[C@@H](CO)O1: >90%
